Recorded selectivity ratio for the following compounds
Assay: Selectivity index, ratio of IC50 for CHO cells to IC50 for chloroquine-sensitive asexual erythrocyte stage form Plasmodium falciparum NF54
Format: toxicity, cell-based
Settings: hamster, read-out: Ratio IC50

compound | selectivity ratio
CCCCCC(=O)OCC1(C)O[C@@H]2O[C@]3(C)CC[C@H]4[C@H](C)CC[C@@H]1[C@@]24OO3 (some centres not stated) | > 1660
C[C@@H]1CC[C@H]2C(C)(COC(=O)c3ccco3)O[C@@H]3O[C@]4(C)CC[C@@H]1[C@]32OO4 (some centres not stated) | > 10900
C[C@@H]1CC[C@H]2C(C)(CO)O[C@@H]3O[C@]4(C)CC[C@@H]1[C@]32OO4 (some centres not stated) | > 24400
CC(=O)Oc1ccccc1C(=O)OCC1(C)O[C@@H]2O[C@]3(C)CC[C@H]4[C@H](C)CC[C@@H]1[C@@]24OO3 (some centres not stated) | > 37000
C[C@@H]1CC[C@H]2C(C)(COC(=O)[C@@H]3CCCN3C(=O)C(F)(F)F)O[C@@H]3O[C@]4(C)CC[C@@H]1[C@]32OO4 (some centres not stated) | 12300
C[C@@H]1CC[C@H]2C(C)(COC(=O)c3ccc(-c4ccccc4)cc3)O[C@@H]3O[C@]4(C)CC[C@@H]1[C@]32OO4 (some centres not stated) | > 13700
C[C@@H]1CC[C@H]2C(C)(COC(=O)c3cc4ccccc4o3)O[C@@H]3O[C@]4(C)CC[C@@H]1[C@]32OO4 (some centres not stated) | > 6850

----------
Experiment: Safety index, ratio of compound IC50 to emetine IC50 for human WI38 cells
Format: ADME, cell-based, WI-38
Conditions: read-out: Ratio IC50

molecule | selectivity ratio
C[C@@H]1CC[C@H]2C(C)(COC(=O)[C@@H]3CCCN3C(=O)C(F)(F)F)O[C@@H]3O[C@]4(C)CC[C@@H]1[C@]32OO4 (stereo partly specified) | ≤ 600

----------
Test system: CHO
Assay: Selectivity index, ratio of IC50 for CHO cells to IC50 for human TK10 cells
Assay type: functional
reported-metric: Ratio IC50

molecule | reported-metric | observed-result
C[C@@H]1CC[C@H]2C(C)(COC(=O)c3ccc(-c4ccccc4)cc3)O[C@@H]3O[C@]4(C)CC[C@@H]1[C@]32OO4 (some centres undefined) | Ratio IC50 | >2
C[C@@H]1CC[C@H]2C(C)(COC(=O)c3ccc(F)cc3)O[C@@H]3O[C@]4(C)CC[C@@H]1[C@]32OO4 (some centres undefined) | Ratio IC50 | >2
C[C@@H]1CC[C@H]2C(C)(COC(=O)c3ccc([N+](=O)[O-])cc3)O[C@@H]3O[C@]4(C)CC[C@@H]1[C@]32OO4 (some centres undefined) | Ratio IC50 | >2
C[C@@H]1CC[C@H]2C(C)(COC(=O)[C@@H]3CCCN3C(=O)C(F)(F)F)O[C@@H]3O[C@]4(C)CC[C@@H]1[C@]32OO4 (some centres undefined) | Ratio IC50 | 7.5

----------
Assay: Thermal stability of the compound assessed as melting point by thermogravimetric analysis
Type: physicochemical

compound | Tm [°C]
C[C@@H]1CC[C@H]2C(C)(COC(=O)c3ccc(-c4ccccc4)cc3)O[C@@H]3O[C@]4(C)CC[C@@H]1[C@]32OO4 (some centres undefined) | 173.8
C[C@@H]1CC[C@H]2C(C)(CO)O[C@@H]3O[C@]4(C)CC[C@@H]1[C@]32OO4 (some centres undefined) | 160.9
C[C@@H]1CC[C@H]2C(C)(COC(=O)c3ccco3)O[C@@H]3O[C@]4(C)CC[C@@H]1[C@]32OO4 (some centres undefined) | 177.3
CC(=O)Oc1ccccc1C(=O)OCC1(C)O[C@@H]2O[C@]3(C)CC[C@H]4[C@H](C)CC[C@@H]1[C@@]24OO3 (some centres undefined) | 175.2
C[C@@H]1CC[C@H]2C(C)(C=O)O[C@@H]3O[C@]4(C)CC[C@@H]1[C@]32OO4 (some centres undefined) | 174.9
C[C@@H]1CC[C@H]2C(C)(COC(=O)c3ccc([N+](=O)[O-])cc3)O[C@@H]3O[C@]4(C)CC[C@@H]1[C@]32OO4 (some centres undefined) | 172.4
C[C@@H]1CC[C@H]2C(C)(COC(=O)c3cc4ccccc4o3)O[C@@H]3O[C@]4(C)CC[C@@H]1[C@]32OO4 (some centres undefined) | 172.1
CC(=O)OCC1(C)O[C@@H]2O[C@]3(C)CC[C@H]4[C@H](C)CC[C@@H]1[C@@]24OO3 (some centres undefined) | 171.2
C[C@@H]1CC[C@H]2C(C)(COC(=O)c3cccs3)O[C@@H]3O[C@]4(C)CC[C@@H]1[C@]32OO4 (some centres undefined) | 170.8
C[C@@H]1CC[C@H]2C(C)(COC(=O)[C@@H]3CCCN3C(=O)C(F)(F)F)O[C@@H]3O[C@]4(C)CC[C@@H]1[C@]32OO4 (some centres undefined) | 172.2
C[C@H]1[C@H](OC(=O)CCC(=O)O)O[C@@H]2O[C@@]3(C)CC[C@H]4[C@H](C)CC[C@@H]1[C@@]24OO3 [ARTESUNATE] | 134.7
C[C@H]1[C@@H](O)O[C@@H]2O[C@@]3(C)CC[C@H]4[C@H](C)CC[C@@H]1[C@@]24OO3 | 160
CO[C@H]1O[C@@H]2O[C@@]3(C)CC[C@H]4[C@H](C)CC[C@@H]([C@H]1C)[C@@]24OO3 | 186
C[C@@H]1CC[C@H]2C(C)(COC(=O)c3ccc(F)cc3)O[C@@H]3O[C@]4(C)CC[C@@H]1[C@]32OO4 (some centres undefined) | 171.9

----------
Assay: Cytotoxicity against CHO cells assessed as reduction in cell viability measured after 48 hrs by MTT assay
Type: toxicity, cell-based, Cricetulus griseus
Conditions: Chinese hamster
Recorded IC50 at 48 h for the following molecules

molecule | IC50 at 48 h
C[C@@H]1CC[C@H]2C(C)(COC(=O)c3ccc(F)cc3)O[C@@H]3O[C@]4(C)CC[C@@H]1[C@]32OO4 (some centres undefined) | > 100 µM
CC(=O)OCC1(C)O[C@@H]2O[C@]3(C)CC[C@H]4[C@H](C)CC[C@@H]1[C@@]24OO3 (some centres undefined) | > 100 µM
CCCC(=O)OCC1(C)O[C@@H]2O[C@]3(C)CC[C@H]4[C@H](C)CC[C@@H]1[C@@]24OO3 (some centres undefined) | > 100 µM
C[C@@H]1CC[C@H]2C(C)(CO)O[C@@H]3O[C@]4(C)CC[C@@H]1[C@]32OO4 (some centres undefined) | > 100 µM
CO[C@H]1O[C@@H]2O[C@@]3(C)CC[C@H]4[C@H](C)CC[C@@H]([C@H]1C)[C@@]24OO3 | > 100 µM
CCCCCC(=O)OCC1(C)O[C@@H]2O[C@]3(C)CC[C@H]4[C@H](C)CC[C@@H]1[C@@]24OO3 (some centres undefined) | > 100 µM
C[C@@H]1CC[C@H]2C(C)(COC(=O)c3cccs3)O[C@@H]3O[C@]4(C)CC[C@@H]1[C@]32OO4 (some centres undefined) | > 100 µM
C[C@@H]1CC[C@H]2C(C)(COC(=O)c3ccco3)O[C@@H]3O[C@]4(C)CC[C@@H]1[C@]32OO4 (some centres undefined) | > 100 µM
C[C@@H]1CC[C@H]2C(C)(COC(=O)CCc3ccccc3)O[C@@H]3O[C@]4(C)CC[C@@H]1[C@]32OO4 (some centres undefined) | > 100 µM
C[C@H]1[C@H](OC(=O)CCC(=O)O)O[C@@H]2O[C@@]3(C)CC[C@H]4[C@H](C)CC[C@@H]1[C@@]24OO3 [ARTESUNATE] | > 100 µM
C[C@@H]1CC[C@H]2C(C)(C=O)O[C@@H]3O[C@]4(C)CC[C@@H]1[C@]32OO4 (some centres undefined) | > 100 µM
C[C@@H]1CC[C@H]2C(C)(COC(=O)[C@@H]3CCCN3C(=O)C(F)(F)F)O[C@@H]3O[C@]4(C)CC[C@@H]1[C@]32OO4 (some centres undefined) | 97.1 µM
CC[C@H]1CN2CCc3cc(OC)c(OC)cc3[C@@H]2C[C@@H]1C[C@H]1NCCc2cc(OC)c(OC)cc21 | 0.29 µM
C[C@@H]1CC[C@H]2C(C)(COC(=O)c3ccc([N+](=O)[O-])cc3)O[C@@H]3O[C@]4(C)CC[C@@H]1[C@]32OO4 (some centres undefined) | > 100 µM
CC(=O)Oc1ccccc1C(=O)OCC1(C)O[C@@H]2O[C@]3(C)CC[C@H]4[C@H](C)CC[C@@H]1[C@@]24OO3 (some centres undefined) | > 100 µM
Cc1ccsc1C(=O)OCC1(C)O[C@@H]2O[C@]3(C)CC[C@H]4[C@H](C)CC[C@@H]1[C@@]24OO3 (some centres undefined) | > 100 µM
C[C@H]1[C@@H](O)O[C@@H]2O[C@@]3(C)CC[C@H]4[C@H](C)CC[C@@H]1[C@@]24OO3 | > 100 µM
C[C@@H]1CC[C@H]2C(C)(COC(=O)c3cc4ccccc4o3)O[C@@H]3O[C@]4(C)CC[C@@H]1[C@]32OO4 (some centres undefined) | > 100 µM
C[C@@H]1CC[C@H]2C(C)(COC(=O)c3ccc(-c4ccccc4)cc3)O[C@@H]3O[C@]4(C)CC[C@@H]1[C@]32OO4 (some centres undefined) | > 100 µM
